Consider the following compounds and their measured TGI readings.
# Test system: KM20L2 colon
# testSummary: NCI tumour cell line growth inhibition, 48 h

Cn1nc(-c2ccccc2)c(C(=O)/C=C/c2ccc(F)cc2)c(N2CCOCC2)c1=O; 31.6 µM
COC(=O)C(=O)C(C(=O)C=C(C)C)C(=O)C(=O)Nc1nc2ccc([N+](=O)[O-])cc2s1 (stereo not given); > 100 µM
Cc1nc(Nc2ccccc2)sc1C(=O)CC(=O)C(=O)NC12CC3CC(CC(C3)C1)C2; > 100 µM
O=C(O)CCSC(=O)Nc1ccccc1Cl; > 100 µM
Cc1c(C2Cc3ccccc3N2)c2ccccc2n1C (stereo not given); > 100 µM
O=C1[C@H](Cl)[C@H]2c3cc4ccccc4nc3Oc3ccccc3N12; > 100 µM
O=C(O)c1nccnc1C(=O)O; > 100 µM
COc1ccc(C[C@H](N)C(=O)N2C[C@@H](CO)C[C@@H](n3cnc4c(N(C)C)ncnc43)C2)cc1; > 100 µM

Requested read-out: TGI. Entry: O=C1C(=O)N(c2cccc(C(F)(F)F)c2)C(=O)C(=O)C1c1nc2ccccc2s1 > 100 µM

Requested read-out: TGI. Entry: CC(=O)NC(CCCCN(Cc1ccccc1)C(=O)N(CCCl)N=O)C(=O)NCc1ccccc1 (stereo not given) > 69.5 µM

###

# System: NCI-H23 lung
# testSummary: NCI tumour cell line growth inhibition, 48 h
Consider the following compounds and their measured TGI readings.

Study these solved cases before continuing.
CC1=NN(C(=O)c2ccncc2)C(=O)C1N=Nc1ccc2ccccc2c1 (centres undefined); > 100 µM
CCCOC1OC(CS(=O)(=O)O)C(O)C(O)C1O (centres undefined); > 100 µM
C/C(CCn1[nH]c(=O)ccc1=O)=N\Nc1ccc([N+](=O)[O-])cc1[N+](=O)[O-]; > 100 µM
COc1ccc(CNC(=O)[C@H](Cc2ccc(O)cn2)NC(C)=O)cc1; > 100 µM

Requested read-out: TGI. Entry: COc1ccc2c(c1)N(CCO)C1=C(C(=O)OC1)C2c1ccccc1 (centres undefined) > 50 µM

Requested read-out: TGI. Entry: Cc1ccc(NC(=O)CC/C(CC(=O)C(C)(C)C)=N\Nc2ccc([N+](=O)[O-])cc2[N+](=O)[O-])cc1C > 100 µM

Requested read-out: TGI. Entry: O=C(NNC(=S)NCc1ccccc1)C12CC3CC(CC(C3)C1)C2 > 100 µM

Requested read-out: TGI. Entry: COC(=O)[C@@H]1Cc2cc(O)c(O)cc2C2(CCN(C)CC2)O1 > 10 µM

Requested read-out: TGI. Entry: O=C(O)CCSC(=O)Nc1ccccc1Cl > 100 µM

###

# Test system: OVCAR-4 ovarian
# testSummary: NCI tumour cell line growth inhibition, 48 h
Consider the following compounds and their measured TGI readings.

O=C(O)Cn1c2c(c3c(O)cccc31)C(=O)c1ccccc1-2; > 100 µM
COC(=O)C(C(=O)C(=O)Nc1ccc(OC)cc1[N+](=O)[O-])c1nc2cc(C)c(C)cc2[nH]c1=O (stereo not given); > 100 µM
CC(O)CN1c2ccccc2Sc2ccc(Cl)cc21 (stereo not given); > 10 µM
CN(C)c1ccc(C2ON=C(c3ccccc3)N2C23CC4CC(CC(C4)C2)C3)cc1 (stereo not given); > 10 µM

Requested read-out: TGI. Entry: C=CCn1cnc2c(=O)[nH]c(Nc3ccccc3)nc21 > 100 µM

Requested read-out: TGI. Entry: O=[N+]([O-])c1cccc2nc3ccccc3c(NCCCN3CCCCC3)c12 0.031 µM

Requested read-out: TGI. Entry: COc1ccc(N2C(=O)/C(=C\c3cccc(Oc4ccccc4)c3)SC2c2ccccc2)cc1 (stereo not given) > 100 µM

Requested read-out: TGI. Entry: C[C@]12CC[C@@H]3c4ccc(OCCN5CCCC5)cc4CC[C@H]3[C@@H]1CCC2=O > 100 µM

Requested read-out: TGI. Entry: NC(N)=NS(=O)(=O)c1ccc(NC(=O)c2ccc3[nH]c4ccccc4c(=O)c3c2)cc1 > 100 µM

Requested read-out: TGI. Entry: COc1ccc2nc3n(c2c1)C(c1c(Cl)cccc1Cl)SC3 (stereo not given) 65.9 µM

###

# Test system: DLD-1 colon
# testSummary: NCI tumour cell line growth inhibition, 48 h
measuredEndpoint: TGI

CCCCCCCCCCCCCCCC(=O)OC1C(O)C(CO)OC(OC)C1NC(=O)N(CCCl)N=O (stereo not drawn); 31.5 µM
COCOCC[C@@H]1CC=CC(NC(=O)OCc2ccccc2)C1/C=C/C(=O)CCC1OCCO1 (stereo partly drawn); 33.4 µM
COc1cc(CC(C(=O)O)C(=O)O)c(OC)cc1CC(C(=O)O)C(=O)O; > 100 µM
CCCCCCCCCOC(=S)NCCCCC; > 100 µM
CCC[CH2][Sn]([CH2]CCC)([O]C(=O)c1cc(F)cc(F)c1)[O][Sn]([CH2]CCC)([CH2]CCC)[O]C(=O)c1cc(F)cc(F)c1; 2.41 µM

Requested read-out: TGI. Entry: C/C(CCn1[nH]c(=O)ccc1=O)=N\Nc1ccc([N+](=O)[O-])cc1[N+](=O)[O-] > 100 µM

Requested read-out: TGI. Entry: CC1=NN(C(=O)c2ccc(Cl)cc2)C(=O)/C1=C/c1ccco1 > 100 µM

Requested read-out: TGI. Entry: CC(=O)N/C(=C\c1ccc(/C=C(\NC(C)=O)C2=NC3C(=O)c4ccccc4C(=O)C3N2)cc1)C1=NC2C(=O)c3ccccc3C(=O)C2N1 (stereo not drawn) > 100 µM

Requested read-out: TGI. Entry: Cc1c(C2Cc3ccccc3N2)c2ccccc2n1C (stereo not drawn) > 100 µM

Requested read-out: TGI. Entry: COc1ccc(/C=C\c2cc(OC)c(OC)c(OC)c2)c(O)c1O > 85.8 µM

Requested read-out: TGI. Entry: O=C1C2ON3c4ccccc4C(=O)C3(c3ccccc3)C2C(=O)N1c1ccccc1 (stereo not drawn) > 100 µM

Requested read-out: TGI. Entry: CC(=O)[O-].[O-]c1c(Cl)cc(Cl)cc1/C=N/Nc1ccccn1.[Zn+2] > 100 µM

Requested read-out: TGI. Entry: O=C1[C@H](Cl)[C@H]2c3cc4ccccc4nc3Oc3ccccc3N12 > 100 µM

###

Consider the following compounds and their measured TGI readings.
# Tested on: SNB-75 CNS
# testSummary: NCI tumour cell line growth inhibition, 48 h

CC(O)CN1c2ccccc2Sc2ccc(Cl)cc21 (stereo not drawn); > 10 µM

Requested read-out: TGI. Entry: C[C@@H]1CC[C@@H]2[C@@H](C)C[C@H]3[C@@H]4C(C)(C)OC(=O)[C@]4(C)C(=O)[C@@]23C1=O > 100 µM

Requested read-out: TGI. Entry: COc1cc(CC(C(=O)O)C(=O)O)c(OC)cc1CC(C(=O)O)C(=O)O > 100 µM

###

# Test system: KM12 colon
# testSummary: NCI tumour cell line growth inhibition, 48 h
Consider the following compounds and their measured TGI readings.

Study these solved cases before continuing.
Cc1cc(C)n(CN(Cn2nc(C)cc2C)c2ccccc2)n1; 42.6 µM
CC(=N)N(C)O; > 100 µM

# next compound below
Requested read-out: TGI. Entry: COc1ccc2c(c1)C(N)=C(Cc1ccncc1)C2=O > 100 µM

###

# Test system: OVCAR-8 ovarian
# testSummary: NCI tumour cell line growth inhibition, 48 h
Where a SMILES comes first, the peptide text is derived from it. [ ]: non-standard residue; d: D form. 2Nal = N[CH](Cc1ccc2ccccc2c1)C(=O)O
Consider the following molecules and their measured TGI readings.

COc1ccc(/C=C2/CCS(=O)(=O)c3ccc(C)cc3C2=O)cc1OC; 48.1 µM
Cc1nnc(-c2ccc(C)c(-c3ccc(C(=O)NCc4ccc(Cl)cc4)cc3)c2)o1; > 25 µM
O=C1CN(c2ccc(Cl)cc2)C(=O)CN1NCNN1CC(=O)N(c2ccc(Cl)cc2)CC1=O; > 100 µM
CC(=O)OCC(OC(C)=O)C(OC(C)=O)C(OC(C)=O)C(/C=N\Nc1nc2ccccc2c(=O)[nH]1)=N/Nc1nc2ccccc2c(=O)[nH]1 (stereo unspecified); > 100 µM

Requested read-out: TGI. Entry: CC(C)C(NC(=O)C(CCCCN)NC(=O)C(Cc1c[nH]c2ccccc12)NC(=O)C(Cc1ccc(O)cc1)NC(=O)C(CS)NC(=O)C(N)Cc1ccc2ccccc2c1)C(=O)NC(CS)C(=O)NC(C(N)=O)C(C)O (stereo unspecified) (H-[2Nal]CYWKVCT-NH2; configuration not given here) > 100 µM

Requested read-out: TGI. Entry: CSc1ccc(C2=NN(C(C)=O)C(c3ccc(F)cc3)C2)cc1 (stereo unspecified) 42 µM

###

# Test system: NCI-H460 lung
Hi there, use one of these labels in your reply, thanks! class 1 for active, class 0 for inactive

Example cases with answers are listed next.
O=C(Nc1cccnc1)c1ccc2ccc3ccc(C(=O)Nc4cccnc4)nc3c2n1; class 1
COc1ccc(CNc2cnc3cc(N)cc(N)c3n2)cc1; class 0
CCc1nc2cc(/C=C/C(=O)NO)ccc2c(=O)n1CCc1ccc(F)cc1; class 0
C/C=C(/C)C(=O)OC1C=C(CO)C(=O)C(OC(=O)C(C)(O)C(C)Cl)C1C(C)C (configuration not stated); class 0
CCC[CH2][Sn]([CH2]CCC)([O]C(=O)c1cc(F)cc(F)c1)[O][Sn]([CH2]CCC)([CH2]CCC)[O]C(=O)c1cc(F)cc(F)c1; class 0
COc1ccc2c(c1)C(=O)c1c-2n(CCCN)c(=O)c2cc(OC)c(OC)cc12; class 1

Dear all, I need the recorded test outcome for NC(=Nc1nc(-c2ccccn2)cc2ccccc12)c1ccccn1 , thank you. class 1
